For each of the compounds below, state its Emax at 0.1 µM.
Measurement Target: α2-GABAA receptor (Homo sapiens, UniProt P18507+P47869)
Construct: expressed in transfected cells
Sequence (P47869 29-451): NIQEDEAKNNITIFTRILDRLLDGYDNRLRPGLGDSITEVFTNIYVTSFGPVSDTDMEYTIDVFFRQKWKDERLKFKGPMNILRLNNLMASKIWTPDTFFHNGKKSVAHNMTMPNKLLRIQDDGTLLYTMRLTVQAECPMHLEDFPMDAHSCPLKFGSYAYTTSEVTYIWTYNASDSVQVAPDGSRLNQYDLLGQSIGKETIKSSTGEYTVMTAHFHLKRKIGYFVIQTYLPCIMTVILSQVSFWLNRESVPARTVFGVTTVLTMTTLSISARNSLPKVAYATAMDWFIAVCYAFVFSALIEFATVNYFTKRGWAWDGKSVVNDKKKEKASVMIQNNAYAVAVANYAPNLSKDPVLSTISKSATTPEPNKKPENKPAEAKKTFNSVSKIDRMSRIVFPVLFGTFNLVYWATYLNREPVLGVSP
Sequence (P18507 40-467 isoform P18507-1 limits assumed): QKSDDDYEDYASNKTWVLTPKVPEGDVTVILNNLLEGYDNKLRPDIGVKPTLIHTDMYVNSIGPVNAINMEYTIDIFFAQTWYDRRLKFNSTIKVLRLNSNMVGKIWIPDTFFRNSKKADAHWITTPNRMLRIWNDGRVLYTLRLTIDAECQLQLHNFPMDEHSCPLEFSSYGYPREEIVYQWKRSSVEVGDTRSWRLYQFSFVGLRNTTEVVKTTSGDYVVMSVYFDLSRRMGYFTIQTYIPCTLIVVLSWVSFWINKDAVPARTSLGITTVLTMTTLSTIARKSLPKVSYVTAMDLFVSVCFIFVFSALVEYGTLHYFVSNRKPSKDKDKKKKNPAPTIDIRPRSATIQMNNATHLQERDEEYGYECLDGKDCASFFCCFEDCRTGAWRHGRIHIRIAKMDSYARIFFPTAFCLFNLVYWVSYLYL
Sequence (P28472 26-473 partner): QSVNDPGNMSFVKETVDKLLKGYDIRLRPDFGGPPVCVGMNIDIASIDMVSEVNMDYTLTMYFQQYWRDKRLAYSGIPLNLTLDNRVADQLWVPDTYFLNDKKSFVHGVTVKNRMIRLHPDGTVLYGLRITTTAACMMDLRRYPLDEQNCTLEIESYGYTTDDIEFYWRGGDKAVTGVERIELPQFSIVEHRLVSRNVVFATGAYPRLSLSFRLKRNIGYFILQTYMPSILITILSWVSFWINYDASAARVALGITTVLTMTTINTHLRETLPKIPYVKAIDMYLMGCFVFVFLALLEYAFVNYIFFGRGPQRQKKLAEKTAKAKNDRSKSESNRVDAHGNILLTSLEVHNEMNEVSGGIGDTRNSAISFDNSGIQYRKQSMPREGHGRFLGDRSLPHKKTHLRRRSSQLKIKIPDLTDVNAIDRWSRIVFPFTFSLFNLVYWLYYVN
Assay Text: Whole-cell patch-clamp electrophysiology, positive allosteric modulatory activity in α2-GABAAR-HEK293 cells
Type: cell-based
Test Settings: compound 100 nM; GABA 0.10 to 0.11 µM (approximately EC7-8); normalized to reference compound CVL-865 (= 100%); read-out: α2-GABAAR Positive allosteric modulatory activity
One number for each entry, in %.

Compound: CCCNC(=O)c1nc2c(-c3c(F)ccc(F)c3OC)cccn2c1N
Value Units: %
Emax at 0.1 µM: 71

Give one value of Emax at 0.1 µM per listed compound.
1. COc1cccc(F)c1-c1cccn2c(N)c(C(=O)NCCC(F)(F)F)nc12
2. CCCNC(=O)c1nc2c(-c3c(F)cccc3OC)cc(F)cn2c1N
3. COc1cccc(F)c1-c1cccn2c(N)c(C(=O)Nc3ccccc3)nc12
4. CCCNC(=O)c1nc2c(-c3cc(C(F)F)ccc3OC)cccn2c1N

91
56
107
138

Give one value of Emax at 0.1 µM per listed compound.
1. CCCNC(=O)c1nc2c(-c3cnccc3OC)c(F)ccn2c1N
2. CCCNC(=O)c1nc2c(-c3cc(F)cnc3OC)cccn2c1N
3. CCCNC(=O)c1nc2c(-c3ccc(F)cc3OC)cccn2c1N

1. 124
2. 133
3. 92

Give one value of Emax at 0.1 µM per listed compound.
1. [2H]c1ccn2c(N)c(C(=O)NCCC)nc2c1-c1c(F)cccc1OC
2. CCCNC(=O)c1nc2c(-c3c(F)cccc3OC(F)(F)F)cccn2c1N
3. CCCNC(=O)c1nc2c(-c3cccc(-c4ccnnc4)c3)cccn2c1N

85
101
31
